# Test system: RIPK5;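 also: KINOMEscan kinase panel screen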
# Run parameters: concentration: 1 μM, replicates: in singlicate; n = 1
%Inh overview
Reported metric: %Inh (%)

> print(dat)
                                    compound  unit.text  number
 1  Cc1cccc(-c2cc(Nc3ccncc3)c3ccccc3n2)n1 [GSK223675]          %       6
 2  Cc1cc(-c2ccc3c(c2)CC[C@@H](N[C@@H](C)c2ccccc2)C3)cnc1N.Cl [GW412617]          %       7
 3                     NC(=O)c1nnc2ccccc2c1N          %       0
 4  COc1cccc(NC(=O)NC2CCN(c3ccnc(Nc4ccc(F)cc4)n3)C2)c1 (centres unmarked) [GSK1379721]          %      18
 5  COc1cc2nccc(Nc3ccc(NC(=O)c4ccc(C)cc4)c(O)c3)c2cc1OC.Cl [GW440132]          %       0
 6  Cl.O=C(Nc1cccc(-c2nn3ncccc3c2-c2ccnc(Nc3cccnc3)n2)c1)c1c(F)cccc1F [GSK312879]          %       0
 7  COc1ccccc1CNC(=O)c1cc(C(=O)c2ccccc2C)c[nH]1 [GSK364507]          %       0
 8  Cc1c(Cn2ccn3c(=O)cc(N4CCOCC4)nc23)cccc1C(F)(F)F [GSK2289044]          %       0
 9  COc1ccc2nc(-c3cccc(C)n3)nc(Nc3ccncc3)c2c1 [GSK204919]          %       0
10   O=C(Nc1ccccc1)Nc1cccc(Oc2ccc3nccn3n2)c1          %       0
11  O=c1cc(N2CCOCC2)nc2n(Cc3cccc(Cl)c3Cl)ccn12 [GSK2286295]          %       0
12  Cl.c1ccc(-c2n[nH]cc2-c2ccnc(-c3ccc(CN4CCOCC4)cc3)c2)nc1 [GW776245]          %       0
13  Cc1cc(N2Cc3ccccc3C2)nc(Nc2ccc(S(=O)(=O)N3CCOCC3)cc2)n1.Cl [GSK1669917]          %       6
14  Cc1ccc(C(=O)Nc2ccc(Nc3ccnc4cc(-c5ccccn5)ccc34)cc2O)cc1.Cl [GW440146]          %       0
15  COc1ccccc1-c1ccc2c(NC(=O)C3CC3)n[nH]c2n1 [SB-711239]          %       0
16  COc1ccc(C2=C(Nc3cccc(C(=O)O)c3)C(=O)NC2=O)cc1 [SB-390765]          %      31
17  Cc1cccc(-c2nc(Nc3cccc(C(N)=O)c3)c3ccccc3n2)n1 [GW876019]          %       0
18  CC(C)(C)c1ccc(C(=O)Nc2cn3cc(Cl)ccc3n2)cc1          %       0
19  COc1cc2ncnc(Nc3ccc4nc(-c5ccccc5)[nH]c4c3)c2cc1OC.Cl [GW282450]          %       0
20  Cc1nnc(-c2ccc3occ(-c4ccc(S(C)=O)cc4)c3c2)[nH]1 (centres unmarked)          %       0
21  Cl.NC(=O)c1cccc(Nc2nccc(Nc3ccc(Oc4cccc(Cl)c4)c(Cl)c3)n2)c1 [GW659008]          %       0
22  Cn1ccc2ncnc(Oc3cccc(C(=O)Nc4ccccc4)c3)c21          %       0
23  O=C1NC(=O)C(N2CCc3ccccc32)=C1c1ccccc1Cl [SB-373598]          %       0
24  COC(=O)c1c(-c2ccccc2)c2cc(OC)ccc2c(=O)n1Cc1ccccc1          %      24
25  Nc1nc(-c2nccs2)c(-c2ccnc3ccccc23)s1 [GW693542]          %       0
26  CCCc1ccc(S(=O)(=O)NC2CCN(c3ccnc(Nc4ccc(F)cc4)n3)C2)cc1 (centres unmarked) [GSK1379715]          %       0
